# Tested on: 3T3-L1
# protocol: Inhibition of cell proliferation of mouse 3T3L1 cells at 100 uM incubated for 48 hrs by MTT assay
# Assay type: functional, cell-based
Activity calls are given as the source filed them. The calls are words filed in the database; no cut-off is given here.
Hi! Could you answer with just one of these? t = active, f = inactive

Before answering, review these 3 worked examples.
[
  {
    "substance_smiles": "O=C(COc1ccccc1)Nc1ccc(-c2coc3cc(O)ccc3c2=O)cc1",
    "qualitative_label": "f"
  },
  {
    "substance_smiles": "CC(=O)Oc1ccc2c(=O)c(-c3ccc(NC(=O)COc4ccc(C)cc4)cc3)coc2c1",
    "qualitative_label": "t"
  },
  {
    "substance_smiles": "O=C(COc1cccc2ccccc12)Nc1ccc(-c2coc3cc(O)ccc3c2=O)cc1",
    "qualitative_label": "f"
  }
]

Request: Record lookup: outcome of this test for COc1ccccc1OCC(=O)Nc1ccc(-c2coc3cc(O)ccc3c2=O)cc1 ?
Response: f

* * *

# Tested on: 3T3-L1
# protocol: Inhibition of cell proliferation of mouse 3T3L1 cells at 100 uM incubated for 48 hrs by MTT assay
# Format: functional, cell-based
The source made the active and inactive calls. The rule behind the calls is not given here.
Hi! Could you answer with just one of these? active, inactive

[
  {
    "substance_smiles": "COc1ccccc1OCC(=O)Nc1ccc(-c2coc3cc(OC(C)=O)ccc3c2=O)cc1",
    "qualitative_label": "active"
  }
]

Request: Record lookup: outcome of this test for Cc1ccc(OCC(=O)Nc2ccc(-c3coc4cc(O)ccc4c3=O)cc2)cc1 ?
Response: inactive

Request: Record lookup: outcome of this test for CCCCCCCC/C=C\CCCCCCCC(=O)Oc1ccc2c(=O)c(-c3ccc(OC)cc3)coc2c1 ?
Response: active

Request: Record lookup: outcome of this test for Cc1ccccc1OCC(=O)Nc1ccc(-c2coc3cc(O)ccc3c2=O)cc1 ?
Response: inactive

Request: Record lookup: outcome of this test for CC(=O)Oc1ccc2c(=O)c(-c3ccc(NC(=O)COc4cccc5ccccc45)cc3)coc2c1 ?
Response: active

Request: Record lookup: outcome of this test for CC(=O)Oc1ccc2c(=O)c(-c3ccc(NC(=O)COc4cccc(C)c4)cc3)coc2c1 ?
Response: active

* * *

# target_desc: Cholesteryl ester transfer protein (Oryctolagus cuniculus)
# protocol: Inhibition of CETP in rabbit serum at 100 uM incubated for 1 hr using NBD-labeled cholesterol in HDL and LDL by fluorescence based assay
Activity calls are given as the source filed them. The rule behind the calls is not given here.
Hi! Could you answer with just one of these? active, inactive

Before answering, review these 2 worked examples.
[
  {
    "substance_smiles": "CC(=O)Oc1ccc2c(=O)c(-c3ccc(NC(=O)COc4ccccc4C)cc3)coc2c1",
    "target_desc": "Cholesteryl ester transfer protein (Oryctolagus cuniculus)",
    "qualitative_label": "active"
  },
  {
    "substance_smiles": "Cc1ccc(OCC(=O)Nc2ccc(-c3coc4cc(O)ccc4c3=O)cc2)cc1",
    "target_desc": "Cholesteryl ester transfer protein (Oryctolagus cuniculus)",
    "qualitative_label": "active"
  }
]

Request: Record lookup: outcome of this test for Cc1ccccc1OCC(=O)Nc1ccc(-c2coc3cc(O)ccc3c2=O)cc1 ?
Response: active

Request: Record lookup: outcome of this test for COc1ccccc1OCC(=O)Nc1ccc(-c2coc3cc(O)ccc3c2=O)cc1 ?
Response: inactive

Request: Record lookup: outcome of this test for Cc1cccc(OCC(=O)Nc2ccc(-c3coc4cc(O)ccc4c3=O)cc2)c1 ?
Response: active

Request: Record lookup: outcome of this test for COc1ccccc1OCC(=O)Nc1ccc(-c2coc3cc(OC(C)=O)ccc3c2=O)cc1 ?
Response: inactive

Request: Record lookup: outcome of this test for COc1cc(F)c(C(C)C)cc1-c1ccc(C(F)(F)F)cc1CN1C(=O)O[C@H](c2cc(C(F)(F)F)cc(C(F)(F)F)c2)[C@@H]1C ?
Response: active

Request: Record lookup: outcome of this test for O=C(COc1cccc2ccccc12)Nc1ccc(-c2coc3cc(O)ccc3c2=O)cc1 ?
Response: active

Request: Record lookup: outcome of this test for O=C(COc1ccccc1)Nc1ccc(-c2coc3cc(O)ccc3c2=O)cc1 ?
Response: active

Request: Record lookup: outcome of this test for CC(=O)Oc1ccc2c(=O)c(-c3ccc(NC(=O)COc4cccc(C)c4)cc3)coc2c1 ?
Response: inactive

Request: Record lookup: outcome of this test for CC(=O)Oc1ccc2c(=O)c(-c3ccc(NC(=O)COc4ccc(C)cc4)cc3)coc2c1 ?
Response: inactive

Request: Record lookup: outcome of this test for CC(=O)Oc1ccc2c(=O)c(-c3ccc(NC(=O)COc4ccccc4)cc3)coc2c1 ?
Response: active

Request: Record lookup: outcome of this test for CC(=O)Oc1ccc2c(=O)c(-c3ccc(NC(=O)COc4cccc5ccccc45)cc3)coc2c1 ?
Response: active
